- System: F1*sub RNA substrate (template-directed ligation)
- test_details: fraction ligated after 30 min (ligated reads / total reads); higher = more ligase activity; sequences stand for … in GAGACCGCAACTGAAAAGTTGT…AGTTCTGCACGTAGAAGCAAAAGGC
- stated_conditions: 42 °C
outcome_measure: fraction ligated
In your answer, state the number alone without any accompanying words.

TATCACTTGTCTAAGACACTTTGTGGGTTGA [3d1886] ... 0.044

Quick note, fraction ligated for TATCACTGCGTAAGACACTTTGGATGGGTTG [3d1342] landed at 0.834

Quick note, fraction ligated for TATACTTGTCGTAAGCACTTTGGATGGGTTA [3d901] landed at 0.0196

###

Each entry below lists one item and its recorded fraction ligated value.
- Test system: F1*sub RNA substrate (template-directed ligation)
- test_details: fraction ligated after 30 min (ligated reads / total reads); higher = more ligase activity; sequences stand for … in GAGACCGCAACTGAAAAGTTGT…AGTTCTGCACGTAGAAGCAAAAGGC
- stated_conditions: 42 °C

Please review the entries below; each comes with its answer.
TACACTTGCGTAAGACACTTTGGATGGGTTGA [2d52] ... 0.115
TATCCTTGTCGTAAACACTTTGATGGGTTGA [3d1059] ... 0.758

Quick note, fraction ligated for TTCATTGTCGTAAGACACTTTGGATGGTTGA [3d333] landed at 0.421

###

- Test system: F1*sub RNA substrate (template-directed ligation)
- test_details: fraction ligated after 30 min (ligated reads / total reads); higher = more ligase activity; sequences stand for … in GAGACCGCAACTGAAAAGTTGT…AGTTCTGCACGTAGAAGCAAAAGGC
- stated_conditions: 42 °C
Rule: T for fraction ligated not less than 0.1, F for anything less.

Answered cases to consult:
TATACTTGTCGTAAGACACTTTGATGGTTGA [3d935] ... F
TATCACTGTCGTAAGCATTTGGATGGGTTGA [3d1410] ... T
TATCACTTTCGTAAGCACTTTGGAGGGTTGA [3d1535] ... F
TATCACTTGTGTAGACACTTTGGTGGGTTGA [3d1739] ... T
TTCACTTTCGTAGACACTTTGGATGGGTTGA [3d358] ... T
TTCACTTGCGTAAGACACTTTGGATGGGTTG [3d386] ... T
TATACTTGTCGTAAGCACTTTGGAGGGTTGA [3d899] ... F
TATCACTTGTCGTAAGACTTTGGATGGGTTG [3d2113] ... T
TATCACTTGTCTAAGAACTTGGATGGGTTGA [3d1857] ... T
TATCACTGTCGTAAGACATTTGGATGGGTTA [3d1438] ... T

Does TATCACTTGTCGTAAGCACTTTGGAGGGTTA [3d2146] have a reported fraction ligated of at least 0.1?
T

###

- System: F1*sub RNA substrate (template-directed ligation)
- test_details: fraction ligated after 30 min (ligated reads / total reads); higher = more ligase activity; sequences stand for … in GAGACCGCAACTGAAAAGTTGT…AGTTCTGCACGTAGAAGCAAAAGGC
- stated_conditions: 42 °C
Rule: TRUE for fraction ligated not less than 0.7, FALSE for anything less.

Does TATCACTTGTCGTAAGCACTTGGATGGGTTGA [2d247] have a reported fraction ligated of at least 0.7?
TRUE

Does TACACTTGTCGTAAGACACTTTATGGGTTGA [3d721] have a reported fraction ligated of at least 0.7?
FALSE

Does TATCACTTGTCGTAGACACTTTGATGGTTGA [3d2045] have a reported fraction ligated of at least 0.7?
FALSE
